In this section, each of the compounds is paired with its reported EC50.
- System: α-smooth muscle actin (aSMA) positive LL29 cells
- assayProcedure: Inhibition of the fibrotic process: αSMA staining in TGF-β1 treated LL29 fibroblasts from IPF patients
- conditionParameters: Homo sapiens, Fibroblast, 96 h
property: EC50

| compound | property | result |
| --- | --- | --- |
| CN1CC(COc2cncc(-c3ccc4cnc(NC(=O)c5ccc(F)cc5)cc4n3)n2)C1 [Compound 4564] | EC50 | > 10 µM |
| Cn1cncc1-c1cc2cc(NC(=O)C3CCC(F)(F)CC3)ncc2cn1 [Compound 4027] | EC50 | > 10 µM |
| CC(C(=O)Nc1cc2cc(-c3cncn3C)cnc2cn1)N1CCCC1 (stereo not shown) [Compound 3134] | EC50 | > 10 µM |
| Cn1cc(-c2cnc3cnc(NC(=O)[C@H]4CCCN4)cc3c2)cn1 [Compound 2782] | EC50 | 2.4 µM |

====

In this section, each of the compounds is paired with its reported EC50.
- Tested on: Tau phosphorylation at Ser396 (pSer396)
- assayProcedure: Tau phosphorylation at Ser396 (pSer396) in SH-SY5Y cells, ELISA / western blot;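 note: decrease in pSer396 Tau measured in lysates of treated cells by colorimetric ELISA or chemiluminescent western blot, same pSer396 antibody for both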
- Assay type: cell-based, human
- conditionParameters: Homo sapiens; SH-SY5Y cells, overnight (16-18 h); read-out: pSer396 Tau EC50
property: EC50 (nM)

| compound | comparativeSign | resultNumber |
| --- | --- | --- |
| CN1CCN(Cc2cccc(C(=O)Nc3cc4cc(-c5cnn(C)c5)ncc4cn3)c2)CC1 [Compound 3799] | = | 3640 |
| Cn1cc(-c2ccc3cnc(NC(=O)C4CCN(Cc5ncco5)CC4)cc3n2)cn1 [Compound 95] | = | 1700 |
| O=C(Nc1ncc2ccc(-c3cncs3)cc2n1)C1CCN(C(=O)CN2CCCC2)CC1 [Compound 1524] | > | 10000 |
| CN1CCN(c2ncc(C(=O)Nc3cc4cc(-c5cnn(C)c5)ncc4cn3)s2)CC1 [Compound 4632] | = | 7930 |
| Cn1cc(-c2ccc3cnc(NC(=O)c4ccc(OC5CCNCC5)cc4)nc3c2)nn1 [Compound 4573] | = | 10000 |
| O=C(Nc1cc2cc(-c3cncs3)ncc2cn1)C1CCN(C2COC2)CC1 [Compound 4244] | = | 284 |
| Cn1cc(-c2ccc3cnc(NC(=O)C4CC4)nc3c2)cn1 [Compound 909] | = | 372 |
| CC(C)CN1CCC(CC(=O)Nc2cc3cc(-c4cnn(C)c4)ncc3cn2)C1 (stereo not drawn) [Compound 3749] | = | 87 |
| CC(C)CN1CCC(C(=O)Nc2ncc3ccc(-c4cnn(C)c4)cc3n2)CC1 [Compound 923] | = | 1300 |
| CC(C)CN1CCC(C(=O)Nc2cc3cc(-c4cnn(C)c4)ncc3cn2)CC1 [Compound 3643] | = | 102 |
| Cc1ncc(-c2ccc3cnc(NC(=O)Cn4ccnc4)cc3n2)o1 [Compound 589] | = | 10000 |
| Cn1cc(-c2cnc3cnc(NC(=O)C4CC4)cc3c2)cn1 [Compound 2722] | = | 6010 |
| CCN(CC)CC(=O)Nc1cc2cc(-c3cnn(C)c3CN3CCCCC3)ncc2cn1 [Compound 3910] | = | 989 |
| Cn1cc(-c2cc3cc(NC(=O)C4CCN(CCC(F)(F)F)CC4)ncc3cn2)cn1 [Compound 3646] | = | 79 |
| Cn1cc(-c2ccc3cnc(NC(=O)CC4CNCCO4)nc3c2)cn1 (stereo not drawn) [Compound 994] | > | 10000 |
| O=C(Nc1cc2cc(-c3cncc(NCC4(F)CNC4)n3)ncc2cn1)C1CC1 [Compound 4498] | = | 37 |
| Cn1cc(-c2ccc3cnc(NC(=O)[C@H]4CC[C@H](N)CC4)cc3n2)cn1 [Compound 41] | > | 10000 |
| Cn1cc(-c2ccc3nnc(NC(=O)C4CC4)cc3c2)cn1 [Compound 1815] | > | 10000 |

====

- assayedTarget: DYRK1A kinase (Homo sapiens)
- assayProcedure: DYRK1A kinase activity (Ser/Thr 18 peptide Z-lyte FRET assay)
- Assay type: biochemical
- conditionParameters: recombinant DYRK1A, 30 μM ATP, one hour at room temperature
pEC50: −log10 of the molar value.
In this section, each of the compounds is paired with its reported pEC50.

| chemSmiles | assayedTarget | comparativeSign | pEC50 |
| --- | --- | --- | --- |
| CC(C)OC(=O)N1CCC(n2cc(C(=O)Nc3cc4cc(-c5cnn(C)c5)cnc4cn3)cn2)CC1 | DYRK1A kinase (Homo sapiens) | = | 7.55 |
| Cn1cc(-c2cc3cc(NC(=O)C4CCNCC4)ncc3cn2)cn1 | DYRK1A kinase (Homo sapiens) | = | 8.22 |
| Cc1ncc(C(=O)Nc2cc3cc(-c4cnc(C)n4C)ncc3cn2)s1 | DYRK1A kinase (Homo sapiens) | = | 8.15 |
| Cc1ncc(-c2cnc3cnc(NC(=O)c4ccnc(N5CCN(C)CC5)c4)cc3c2)s1 | DYRK1A kinase (Homo sapiens) | = | 6.92 |
| Cn1cncc1-c1ccc2cnc(NC(=O)c3ccc4c(c3)CNC4)nc2c1 | DYRK1A kinase (Homo sapiens) | = | 8.70 |
| Cn1cc(-c2cc3cc(NC(=O)C(C)(C)F)ncc3cn2)nn1 | DYRK1A kinase (Homo sapiens) | = | 5.99 |
| Cc1ncc(-c2ccc3cnc(NC(=O)N4CCOCC4)cc3n2)s1 | DYRK1A kinase (Homo sapiens) | = | 7.54 |
| CN1CCN(c2cccc(C(=O)Nc3cc4cc(-c5cnn(C)c5)ccc4nn3)c2)CC1 | DYRK1A kinase (Homo sapiens) | = | 6.50 |
| Cn1cc(-c2ccc3nnc(NC(=O)C4CC4)cc3c2)cn1 | DYRK1A kinase (Homo sapiens) | < | 5.00 |
| Cn1cc(-c2ccc3cnc(NC(=O)C4CCN(S(C)(=O)=O)CC4)nc3c2)cn1 | DYRK1A kinase (Homo sapiens) | < | 5.00 |
| CN1CCC(n2cc(C(=O)Nc3cc4cc(-c5cncc6[nH]ccc56)ncc4cn3)cn2)CC1 | DYRK1A kinase (Homo sapiens) | = | 8.00 |
| CC(C)Oc1ccc(C(=O)Nc2ncc3ccc(-c4cnc5n4CCN(C)C5)cc3n2)cc1 | DYRK1A kinase (Homo sapiens) | = | 6.76 |
| CC(C)Oc1ccc(C(=O)Nc2cc3cc(-c4cnc5n4CCNC5)cnc3cn2)cc1 | DYRK1A kinase (Homo sapiens) | = | 5.98 |
| Cn1cc(-c2cc3cc(NC(=O)c4ccc5ccoc5c4)ncc3cn2)cn1 | DYRK1A kinase (Homo sapiens) | = | 8.30 |
| O=C(Nc1cc2cc(-c3cncs3)ncc2cn1)C1CCN(C2COC2)CC1 | DYRK1A kinase (Homo sapiens) | = | 8.40 |
| C[C@H]1CCCN1CC(=O)Nc1cc2cc(-c3cnn(C)c3)ncc2cn1 | DYRK1A kinase (Homo sapiens) | = | 8.15 |
| Cc1ncc(-c2ccc3cnc(NC(=O)C4CCN(C)CC4)cc3n2)s1 | DYRK1A kinase (Homo sapiens) | = | 7.42 |

====

In this section, each of the molecules is paired with its reported EC50.
- Test system: secreted cytokines TNFα, IL-6 and KC-GRO
- assayProcedure: Secreted cytokines in Lipopolysaccharide-stimulated BV-2 cells (Table 9 does not say which cytokine)
- Type: cell-based, mouse
- conditionParameters: BV-2 cells, LPS 250 ng/mL 5 hours, compounds overnight, 10 μM to […]; cytokine not named in Table 9; read-out: EC50

| chemSmiles | EC50 |
| --- | --- |
| CN1CCN(c2ncc(C(=O)Nc3cc4cc(-c5cnn(C)c5)ncc4cn3)s2)CC1 | 2900 nM |
| O=C(Nc1cc2nc(-c3cnn4c3CN(CCF)CC4)ccc2cn1)C1CCC(F)(F)CC1 | 66 nM |

====

- assayedTarget: DYRK1A kinase (Homo sapiens, UniProt Q13627)
- assayProcedure: DYRK1A kinase activity (Ser/Thr 18 peptide Z-lyte FRET assay);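 note: kinase activity read as coumarin/fluorescein emission ratio after development step, with unphosphorylated and phosphorylated peptide forms setting 0% and 100% controls, values from dose-response curves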
- conditionParameters: recombinant DYRK1A, 30 μM ATP, one hour at room temperature

| compound | EC50 [nM] |
| --- | --- |
| O=C(Nc1ncc2ccc(-c3cncc(NC4CCNCC4)n3)cc2n1)C1CCOCC1 | 7 |
| Cc1ncc(-c2ccc3cnc(NC(=O)N4CCC(N5CCOCC5)CC4)cc3n2)o1 | 77 |
| Cc1nnc(-c2cnc3cnc(NC(=O)c4ccnc(SC5CCN(C)CC5)c4)cc3c2)s1 | 71 |
| O=C(Nc1cc2cc(-c3cncc(NCC4(F)CNC4)n3)ncc2cn1)C1CC1 | 2 |
| Cn1cc(-c2cc3cc(NC(=O)CC4CNCCO4)ncc3cn2)cn1 (centres unmarked) | 10 |
| CN1CCN(c2cc(C(=O)Nc3cc4cc(-c5ccc(N)nc5)ncc4cn3)ccn2)CC1 | 12 |
| CC(C)Nc1cncc(-c2ccc3cnc(NC(=O)c4cn(C5CCNCC5)nn4)cc3n2)n1 | 203 |
| CC(C)CN1CCC(CC(=O)Nc2cc3cc(-c4cnn(C)c4)ncc3cn2)C1 (centres unmarked) | 10 |
| CC(C)OCCC(=O)Nc1cc2cc(-c3cncn3C)cnc2cn1 | 123 |
| Cc1ncc(-c2ccc3cnc(NC(=O)c4ccnc(N5CCN(C)CC5)c4)cc3n2)s1 | 10 |
| Cc1ncc(-c2ccc3cnc(NC(=O)[C@H]4C[C@H](N5CCOCC5)C4)nc3c2)o1 | 370 |
| CN1CCN(c2ccc(C(=O)Nc3ncc4ccc(-c5cnn(C)c5)cc4n3)cn2)CC1 | 9 |
| CC(C)n1cc(C(=O)Nc2cc3cc(-c4cncc(NC5CCN(C)CC5)n4)cnc3cn2)cn1 | 7 |
| CC(C)CN1CCC(C(=O)Nc2cc3cc(-c4nnnn4C)cnc3cn2)CC1 | 1480 |
| CC(C)Oc1ccc(C(=O)Nc2cc3cc(-c4cnc5n4CCNC5)ncc3cn2)cc1 | 53 |
| O=C(Nc1ncc2ccc(-c3cnco3)cc2n1)C1CCN(C(=O)CN2CCCC2)CC1 | 100 |
| Cn1ncc(-c2ccc3cnc(NC(=O)c4ccnc(N5CCOCC5)c4)nc3c2)c1CN1CCOCC1 | 19 |
| Cc1nnc(-c2cnc3cnc(NC(=O)C4CCN(C(=O)c5ccccc5)CC4)cc3c2)s1 | 100 |
| CN(C)C1CCN(c2cc(C(=O)Nc3ncc4ccc(-c5cn(C)nn5)cc4n3)ccn2)CC1 | 8 |
| Cn1cnnc1-c1ccc2cnc(NC(=O)C3CCN(CCC(F)(F)F)CC3)nc2c1 | 57 |
| Cn1cc(-c2ccc3cnc(NC(=O)[C@H]4CC[C@H](NC(=O)OC(C)(C)C)CC4)cc3n2)cn1 | 35 |
| Cn1cc(-c2ccc3cnc(NC(=O)c4ccc5nccnc5c4)cc3n2)cn1 | 7 |
| CN1CCCN(CC(=O)Nc2cc3nc(-c4cnn(C)c4)ccc3cn2)CC1 | 71 |
| CN1CCC(N(C)c2cc(C(=O)Nc3cc4cc(-c5cn(C)nn5)cnc4cn3)ccn2)CC1 | 88 |
| CN1CCC(n2cc(C(=O)Nc3ncc4ccc(-c5cncc6[nH]ccc56)cc4n3)cn2)CC1 | 7 |
| CC(C)OC(=O)N1CCC(n2cc(C(=O)Nc3cc4cc(-c5cnn(C)c5)ncc4cn3)cn2)CC1 | 5 |
| O=C(Nc1cc2nc(-c3cncs3)ccc2cn1)c1ccncc1 | 4 |
| CN(C)C1CCN(c2cc(C(=O)Nc3cc4cc(-c5cn(C)nn5)cnc4cn3)ccn2)CC1 | 119 |
| Cn1ncc(-c2cnc3cnc(NC(=O)c4ccnc(N5CCOCC5)c4)cc3c2)c1CN1CCOCC1 | 119 |
| Cn1ncc(-c2cnc3cnc(NC(=O)C4CC5(C4)CN(CCF)C5)cc3c2)c1CN1CCCCC1 | 10 |
| O=C(Nc1cc2cc(-c3cncc(NC4CCNCC4)n3)cnc2cn1)C1CCOCC1 | 6 |
| Cn1cncc1-c1cc2cc(NC(=O)c3ccc(F)cc3)ncc2cn1 | 8 |

The values you see were collected from patent US10703748B2.
